Just for reference, ChEMBL document CHEMBL1130004 is where these values come from.

Species: Rattus norvegicus
measurement_description: Adenylyl cyclase stimulating activity expressed as effective dose was measured in rat osteosarcoma 17/2 cells
Assay type: functional, cell-based
measurement_name: EC50 (nM)

[[record]]
substance = "H-SVSEIQLMHNLGKHLNSMERVEWLRKLLQD-NH2"
measurement_name = "EC50"
test_value = 20

[[record]]
substance = "H-SVSEIQLMHNLGKHLNSMERVEWLRKKLQD-NH2"
measurement_name = "EC50"
test_value = 20

